Tested on: Clostridium difficile (Isolate ID ATCC 9689)
Assay explanation: Bacterial Assay: Determination of Antibacterial Activity (MIC, broth microdilution or agar dilution)
Type: cell-based
Condition context: Clostridioides difficile, ATCC9689, 48 h, read-out: C. difficile MIC Activity Range
Measured attribute: MIC

Give the value of MIC reported for the following: N#Cc1cc(Cl)ccc1-c1csc(COc2ccc(F)c(C(N)=O)c2F)n1 [Compound 206] < 1.01 µg/mL

Give the reported value of MIC for this record: CC(=O)OCC(Oc1ccc(F)c(C(N)=O)c1F)c1nc(-c2ccc(C(F)(F)F)cc2)c(Cl)o1 (stereo not shown) [Compound 34] < 1.01 µg/mL

Respond only with MIC recorded for COc1ccc(-c2nc(COc3ccc(F)c(C(N)=O)c3F)oc2Br)cc1 [Compound 22] < 1.01 µg/mL

Entry Cc1cccc(CNC(=O)OCC(Oc2ccc(F)c(C(N)=O)c2F)c2nc(-c3ccc(C(F)(F)F)cc3)c(Br)o2)n1 (stereo not shown) [Compound 77] needs its MIC filled in; supply it. 1 to 4 µg/mL

Report measured MIC; entry is NC(=O)c1c(F)ccc(OCc2nc(-c3ccc(Cl)cc3)c(-c3cccc(O)c3)o2)c1F [Compound 210] 4 to 16 µg/mL

Look up and state reported MIC for N/C(=N\O)c1c(F)ccc(OCc2nc(-c3ccc(Cl)cc3)ns2)c1F [Compound 21] < 1.01 µg/mL

Return reported MIC. Input compound: NC(=O)c1c(F)ccc(OC(COC(=O)NCc2ccncc2)c2nc(-c3ccc(C(F)(F)F)cc3)c(Br)o2)c1F (stereo not shown) [Compound 63] < 1.01 µg/mL

Supply reported MIC belonging to this compound: NC(=O)c1c(F)ccc(OCCCCCCOc2ccc(Cl)cc2)c1F [Compound 133] < 1.01 µg/mL

Look up MIC of CCC(Oc1ccc(F)c(C(N)=O)c1F)c1nc(-c2ccc(Cl)cc2)c(Br)o1 (stereo not shown) [Compound 27] and report it. 1 to 4 µg/mL

Give the measured MIC for NC(=O)c1c(F)ccc(OCCc2nc(-c3ccc(OC(F)(F)F)cc3)no2)c1F [Compound 117] < 1.01 µg/mL
